test system: UACC-62 melanoma; assay: NCI-60 one-dose screen, 48 h (100 = growth as untreated, 0 = no growth, -100 = all killed); details: 10 µM unless noted
This is part of a sample that, as a whole, favours compounds with a hit. Of some 83,000 tested, about 20% had one in any assay.

{"columns": ["molecule", "measure.unit", "growth"],
 "data": [
  ["CC1(C)C(=O)/C(=C\\c2ccccn2)C[C@]2(C)[C@H]3CC[C@@H]4[C@@H](C(=O)/C=C/c5ccccn5)CC[C@@]4(C)[C@]3(C)CC[C@@H]12", "%", -54.2],
  ["N#Cc1c(-c2ccc(O)cc2)c2c(N)nn(-c3ccccc3)c2[nH]c1=O", "%", 96],
  ["Cc1cc2nc3c4cc([N+](=O)[O-])cc([N+](=O)[O-])c4n(CCN(C)C)c3nc2cc1C", "%", 87],
  ["CC(c1ccccc1)N1C(=O)C(C2SC(=S)N(C(C)c3ccccc3)C2=O)SC1=S (centres undefined)", "%", 77.7]
]}

* * *

tested on: MALME-3M melanoma; experiment: NCI-60 one-dose screen, 48 h (100 = growth as untreated, 0 = no growth, -100 = all killed); settings: 10 µM unless noted
The panel holds about 83,000 compounds, 20% with a hit somewhere; the sample as a whole holds those more often.
endpoint.label: growth (%)

{"columns": ["compound", "experimental.system", "measure.unit", "observed.measurement"],
 "data": [
  ["C#CCN=C[C@]12CC[C@@H](C(=C)C)[C@@H]1[C@H]1CC[C@@H]3[C@@]4(C)CCC(=O)C(C)(C)[C@@H]4CC[C@@]3(C)[C@]1(C)CC2", "MALME-3M melanoma", "%", 81.8],
  ["C/C(=C(/c1ccccc1)c1ccc(N2C(=O)c3cccc4c(NCc5ccccc5)ccc(c34)C2=O)cc1)c1ccccc1", "MALME-3M melanoma", "%", 96.3],
  ["CCCC(=O)N1CCCCC1CC (stereo not drawn)", "MALME-3M melanoma", "%", 118],
  ["COc1cc(NC(C)CN(CC(C)C)C(C)C)c2ncccc2c1 (stereo not drawn)", "MALME-3M melanoma", "%", 104],
  ["C[C@]12CC[C@@H]3c4ccc(O)cc4CC[C@H]3[C@@H]1C[C@H](O)[C@@H]2O", "MALME-3M melanoma", "%", 95.8],
  ["COC(=O)[C@]12CC[C@@H](C)[C@H](C)[C@@H]1C1=CC[C@@H]3[C@@]4(C)C(c5ncon5)=C[C@@](C)(CO)C4=CC[C@@]3(C)[C@]1(C)CC2", "MALME-3M melanoma", "%", -73.6],
  ["Nc1nc(Br)nc2c1ncn2C1CC(O)C(CO)O1 (stereo not drawn)", "MALME-3M melanoma", "%", 90.2],
  ["NNC(=O)c1nc2ccccc2[nH]1", "MALME-3M melanoma", "%", 107],
  ["COC(=O)[C@]12CC[C@@H](C(C)=O)[C@@H]1[C@H]1CC[C@@H]3[C@@]4(C)C/C(=C/c5cccnc5)C(=O)C(C)(C)[C@@H]4CC[C@@]3(C)[C@]1(C)CC2", "MALME-3M melanoma", "%", 29.9],
  ["O=C1Nc2ccccc2/C1=C/c1cn(CCCn2c3ccccc3c(=O)c3ccccc32)c2ccccc12", "MALME-3M melanoma", "%", 98.7],
  ["COc1cccc(-c2nn(-c3ccccc3)cc2-c2ccnc(NCCNS(=O)(=O)c3ccc(C(F)(F)F)cc3)c2)c1", "MALME-3M melanoma", "%", -17.9],
  ["N=c1c(S(=O)(=O)c2ccccc2)cc2c(=O)n3ccccc3nc2n1C1CCCC1", "MALME-3M melanoma", "%", 108],
  ["COc1cc2nc(Cl)nc(Nc3cccc(C(=O)/C=C/c4ccc(Cl)cc4)c3)c2cc1OC", "MALME-3M melanoma", "%", 88.2],
  ["Nc1ccc(Cl)cn1", "MALME-3M melanoma", "%", 99.7],
  ["Cn1c(=O)c2c(ncn2CCC(=O)Nc2ccc(F)cc2)n(C)c1=O", "MALME-3M melanoma", "%", 114],
  ["Cc1ccc(-c2ccc(/C=C(\\C#N)c3nc(-c4ccco4)cs3)o2)cc1", "MALME-3M melanoma", "%", 109],
  ["CN1CCN(CCOc2ccc(-c3cnc4c(-c5ccccc5F)cnn4c3)cc2)CC1", "MALME-3M melanoma", "%", 7.94],
  ["COC(=O)[C@@H]1[C@H]2C[C@H]3c4[nH]c5cc(OC)ccc5c4CCN3C[C@@H]2C[C@H](OC(=O)/C=C/c2ccnc(OC)c2)[C@H]1OC", "MALME-3M melanoma", "%", 67.6]
]}

* * *

Measured growth accompanies every entry in the list below.
system: DU-145 prostate; assay: NCI-60 one-dose screen, 48 h (100 = growth as untreated, 0 = no growth, -100 = all killed); details: 10 µM unless noted
This is part of a sample that, as a whole, favours compounds with a hit. Of some 83,000 tested, about 20% had one in any assay. Active and inactive are the calls of the source. Rule for the calls: active = growth percent below 10; inactive = the rest.
endpoint.label: growth

{"columns": ["compound", "endpoint.label", "observed.measurement"],
 "data": [
  ["COC(=O)CNc1nc(N(C)O)nc(N(C)O)n1", "growth", "34.7% (inactive)"],
  ["O=C1CCCC=CC[C@H]2C=C(Cl)C(=O)C2=CC[C@H](CCCCC(F)(F)F)OC(=O)CCCC=CC[C@H]2C=C(Cl)C(=O)C2=CC[C@H](CCCCC(F)(F)F)OC(=O)CCCC=CC[C@H]2C=C(Cl)C(=O)C2=CC[C@H](CCCCC(F)(F)F)O1", "growth", "62.4% [6.25 µM] (inactive)"],
  ["Nc1nc(Br)nc2c1ncn2C1CC(O)C(CO)O1 (stereo not drawn)", "growth", "52.7% (inactive)"],
  ["COc1cc(-c2cc(-c3nc4ccc(F)cc4[nH]3)[nH]n2)cc(OC)c1OC", "growth", "35.5% (inactive)"],
  ["Cc1cc(N=O)cc(C(C)(C)C)c1O", "growth", "103% (inactive)"],
  ["C=C(C)[C@@H]1CC[C@]2(C(=O)NNC(=O)c3cccnc3)CC[C@]3(C)[C@H](CC[C@@H]4[C@@]5(C)CCCNC(C)(C)[C@@H]5CC[C@]43C)[C@@H]12", "growth", "91.3% (inactive)"],
  ["NS(=O)(=O)c1ccc(CCNC(=O)/C=C/c2ccc(Cl)cc2)cc1", "growth", "99.5% (inactive)"],
  ["COC(=O)[C@]12CC[C@@H](C(=O)/C=C/c3cccnc3)[C@@H]1[C@H]1CC[C@@H]3[C@@]4(C)C/C(=C/c5cccnc5)C(=O)C(C)(C)[C@@H]4CC[C@@]3(C)[C@]1(C)CC2", "growth", "-67.8% (active)"]
]}

* * *

system: COLO 205 colon; experiment: NCI-60 one-dose screen, 48 h (100 = growth as untreated, 0 = no growth, -100 = all killed); conditions: 10 µM unless noted
About 83,000 compounds went through this panel and 20% of them were active in at least one assay; those are over-represented in the sample as a whole. Calls of active or inactive are those of the source. The calls were made as follows: active = growth percent below 10; inactive = the rest.
endpoint.label: growth

{"columns": ["compound", "observed.measurement"],
 "data": [
  ["O=C(O)c1cccc2c1Cc1cc([N+](=O)[O-])ccc1-2", "107% (inactive)"],
  ["O=C(/C=C/c1cccc2ccccc12)Nc1ncc(Cc2ccccc2)s1", "12.1% (inactive)"],
  ["Cn1c(/C(C#N)=C/c2ccc3ccccc3c2)cc2ccccc21", "2.87% (active)"],
  ["O=[N+]([O-])c1cc(S(=O)(=O)c2ccc(F)c([N+](=O)[O-])c2)ccc1F", "83% (inactive)"],
  ["CC/C(=N/NC(N)=O)c1ccccc1", "119% (inactive)"],
  ["C=C1C(=O)O[C@H]2[C@H]1CC/C(Cn1cc(-c3ccc(F)cc3)nn1)=C\\CC[C@@]1(C)O[C@@H]21", "-84.4% (active)"],
  ["NNC(=O)c1nc2ccccc2[nH]1", "103% (inactive)"],
  ["Cn1cc(-c2csc(-c3cn(CCNC(=O)OC(C)(C)C)c4ccccc34)n2)c2cccnc21", "73.3% (inactive)"],
  ["COc1ccc(OCC(CO)N2CCN(c3ccccc3)CC2)cc1 (centres undefined)", "96.3% (inactive)"],
  ["CCCCC[C@H]1CC=C2C(=O)C=C[C@@H]2CC=CCCCC(=O)O[C@@H](CCCCC)CC=C2C(=O)C=C[C@@H]2CC=CCCCC(=O)O[C@@H](CCCCC)CC=C2C(=O)C=C[C@@H]2CC=CCCCC(=O)O1", "-30.7% [8.75 µM] (active)"],
  ["O=c1[nH]ncc(Br)c1Br", "22.4% (inactive)"],
  ["COc1ccc(NC(=O)c2ccoc2COc2ccccc2)cc1", "110% (inactive)"],
  ["C=C(C)[C@@H]1CC[C@]2(C)[C@H](CC[C@@H]3[C@H]4[C@H]5OC[C@@]4(CCC5(C)C)CC[C@]32C)[C@@]1(C)CCCN", "-58.2% (active)"],
  ["COC(=O)[C@@H]1[C@H]2C[C@H]3c4[nH]c5cc(OC)ccc5c4CCN3C[C@@H]2C[C@H](OC(=O)/C=C/c2ccnc(OC)c2)[C@H]1OC", "76.3% (inactive)"],
  ["C=C(C)[C@@H]1CC[C@]2(C(=O)O)CC[C@]3(C)[C@H](CC[C@@H]4[C@@]5(C)C/C(=C/c6ccc(OC)cc6)C(=O)C(C)(C)[C@@H]5CC[C@]43C)[C@@H]12", "2.57% (active)"],
  ["Cc1cc(C)n(Cc2cc(C(C)(C)C)cc(C(C)(C)C)c2)c(=O)c1C#N", "110% (inactive)"],
  ["O=C1CNCCN1", "122% (inactive)"],
  ["COc1cc(-c2nc(-c3ccccc3)c(-c3ccccc3)[nH]2)cc(OC)c1O", "-73.8% (active)"],
  ["CC(=O)c1c(C)[nH]c(-c2nc3ccc(N4CCN(C)CC4)cc3[nH]2)c1-c1ccc(N(C)C)cc1", "7% (active)"]
]}
